System: human red blood cells (HRBCs)
Experiment Description: Hemolytic assay on human red blood cells
Format: cell-based
Experimental Conditions: human red blood cells 5% (v/v) in PBS, peptide 320 μg/mL (highest dose), 37 °C 1 h, OD 540 nm, PBS = 0%, 1% Triton X-100 = 100%, mean of three independent experiments
Ends that are not written are not given here.
Measured Attribute: HRBC Hemolysis (hemolysis rate at 320 μg/mL)
Record the result as a number with its unit.

[
  {
    "Substance": "LNFKALAALAKKIL-NH2 [Pm-R2]",
    "Experimental System": "human red blood cells (HRBCs)",
    "Value": "66%"
  }
]

Dear colleague, could you send me HRBC Hemolysis (hemolysis rate at 320 μg/mL) for each of the items below? Thanks.
1. IDWLKLGKMVMDVL-NH2 [Polybia-MP III]
2. INWLKLGKKILGAL-NH2 [PDD-B]
3. INLKAIAALAKKLF-NH2 [Mastoparan AF]
4. INWKAIIEAAKQAL-NH2 [Protopolybia-MPII]
5. INMKASAAVAKKLL-NH2 [MP-VB1]
6. INWKAILQRIKKML-NH2 [Agelaia-MPII]
7. LNLKGLIKKVASLLN-OH [Eumenitin-R]

1: 79%; 2: 100%; 3: 47%; 4: 13%; 5: 0%; 6: 100%; 7: 5%

Give HRBC Hemolysis (hemolysis rate at 320 μg/mL) for each of the items listed below.
1. INWLKLGKQILGAL-NH2 [Pm-R3]
2. INLKALAALVKKVL-NH2 [Mastoparan-II]

1: 100%; 2: 78%
